assay: Pharmacokinetic study in rats after oral administration of R-FF or H-FF extract (UHPLC-MS/MS of serum); type: in vivo, SD rats; conditions: male, SD, rat, serum, po, 140 g/kg, oral H-FF extract 140 g/kg, mean ± SD, n = 6, read-out: MRT0–t
Recorded MRT last by entry
Show the value, then the unit it is measured in.

// below: answered compounds
compound="O=C(C=Cc1ccc(O)c(O)c1)OC1CC(O)(C(=O)O)CC(O)C1OC(=O)C=Cc1ccc(O)c(O)c1 (stereo not shown)" measured_attribute="MRT last" measured_value="15.2 h"
compound=O=C(O)/C=C/c1ccc(O)c(O)c1 measured_attribute="MRT last" measured_value="12.7 h"
compound=O=C(/C=C/c1ccc(O)c(O)c1)O[C@@H]1C[C@](O)(C(=O)O)C[C@@H](O)[C@H]1O measured_attribute="MRT last" measured_value="11.1 h"
compound=O=C(/C=C/c1ccc(O)c(O)c1)O[C@H]1[C@H](O)C[C@](O)(C(=O)O)C[C@H]1O measured_attribute="MRT last" measured_value="13.2 h"
compound="O=C(C=Cc1ccc(O)c(O)c1)OC1CC(O)(C(=O)O)CC(O)C1O (stereo not shown)" measured_attribute="MRT last" measured_value="10.9 h"

# input Fill in the blank: the reported MRT last of COc1cc(/C=C/C(=O)O)ccc1O is ____.
# output 3.33 h

# input And the next one, C[C@@H]1O[C@@H](OC[C@H]2O[C@@H](Oc3c(-c4ccc(O)c(O)c4)oc4cc(O)cc(O)c4c3=O)[C@H](O)[C@@H](O)[C@@H]2O)[C@H](O)[C@H](O)[C@H]1O ?
# output 22.7 h

Hello, the source for this data is paper PMC7256776, in case you need it.
